Source of measurements: patent US20260365708

# system_tested: T1, mIL10RalphaFc (mouse, UniProt Q61727)
# T1 chain: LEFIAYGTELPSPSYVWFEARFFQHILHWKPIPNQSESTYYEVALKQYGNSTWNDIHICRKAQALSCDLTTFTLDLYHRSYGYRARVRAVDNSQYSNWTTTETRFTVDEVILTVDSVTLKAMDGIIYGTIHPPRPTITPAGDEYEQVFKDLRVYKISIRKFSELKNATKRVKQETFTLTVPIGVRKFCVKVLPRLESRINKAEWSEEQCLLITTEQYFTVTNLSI
# test_description: SPR
In this section, each of the binders is paired with its reported Kd.
Kindly answer with a numeric value in nM, unit omitted.

Illustrative cases are given below, each with its answer.
{"binder": "mIL10 T100L (protein) SRGQYSREDNNCTHFPVGQSHMLLELRTAFSQVKTFFQTKDQLDNILLTDSLMQDFKGYLGCQALSEMIQFYLVEVMPQAEKHGPEIKEHLNSLGEKLKLLRMRLRRCHRFLPCENKSKAVEQVKSDFNKLQDQGVYKAMNEFDIFINCIEAYMMIKMKS", "Kd / nM": 1.92}
{"binder": "WC163_AA (mIL10 WT fused) (protein) GNCTHFPVGQSHMLLELRTAFSQVKTFFQTKDQLDNILLTDSLMQDFKGYLGCQALSEMIQFYLVEVMPQAEKHGPEIKEHLNSLGEKLKTLRMRLRRCHRFLPCENKSKAVEQVKSDFNKLQDQGVYKAMNEFDIFINCIEAYMMIKMKSSRGQYSREDNQYSREDNSCTHFPVGQSHMLLELRTAFSQVKTFFQTKDQLDNILLTDSLMQDFKGYLGCQALSEMIQFYLVEVMPQAEKHGPEIKEHLNSLGEKLKTLRMRLRRCHRFLPCENKSKAVEQVKSDFNKLQDQGVYKAMNEFDIFINCIEAYMMIKMKS", "Kd / nM": 0.86}
{"binder": "mIL10 WT (protein) SRGQYSREDNNCTHFPVGQSHMLLELRTAFSQVKTFFQTKDQLDNILLTDSLMQDFKGYLGCQALSEMIQFYLVEVMPQAEKHGPEIKEHLNSLGEKLKTLRMRLRRCHRFLPCENKSKAVEQVKSDFNKLQDQGVYKAMNEFDIFINCIEAYMMIKMKS", "Kd / nM": 0.81}

Answer with the recorded Kd for the binder listed here: SS0051_AA (mIL10 T100L fused) (protein) GNCTHFPVGQSHMLLELRTAFSQVKTFFQTKDQLDNILLTDSLMQDFKGYLGCQALSEMIQFYLVEVMPQAEKHGPEIKEHLNSLGEKLKLLRMRLRRCHRFLPCENKSKAVEQVKSDFNKLQDQGVYKAMNEFDIFINCIEAYMMIKMKSSRGQYSREDNQYSREDNSCTHFPVGQSHMLLELRTAFSQVKTFFQTKDQLDNILLTDSLMQDFKGYLGCQALSEMIQFYLVEVMPQAEKHGPEIKEHLNSLGEKLKLLRMRLRRCHRFLPCENKSKAVEQVKSDFNKLQDQGVYKAMNEFDIFINCIEAYMMIKMKS
0.73
